In vitro activity (%) compared with native peptide: vs GLP-1 by entry:
Molecular target: human GLP-1 receptor (human, UniProt P43220 24-463)
Test: cell-based or functional assay
Positions of bridges follow the written chain, without caps; N, C: chain ends. Non-standard residues stand in square brackets, D forms with d. No end group written: not given here. *: point of attachment. Acetyl(2-(4-imidazolyl)) = O=C(Cc1c[nH]cn1)*; Aib = CC(C)(N)C(=O)O
Experimental endpoint: In vitro activity (%) compared with native peptide: vs GLP-1

Binder	Value units	Relation qualifier	Quantitative result
Y[Aib]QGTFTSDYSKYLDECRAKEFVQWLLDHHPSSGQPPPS (bridge 16-20; not fully specified) [triple agonist of SEQ ID NO: 21]	%	=	17.8
{Acetyl(2-(4-imidazolyl))}-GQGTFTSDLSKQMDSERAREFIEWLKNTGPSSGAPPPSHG (not fully specified; also: ring from underlined residues, positions not shown) [triple agonist of SEQ ID NO: 18]	%	<	0.1
{Acetyl(2-(4-imidazolyl))}-[Aib]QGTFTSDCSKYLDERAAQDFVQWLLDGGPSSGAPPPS (not fully specified) [triple agonist of SEQ ID NO: 63]	%	=	15.3
{Acetyl(2-(4-imidazolyl))}-[Aib]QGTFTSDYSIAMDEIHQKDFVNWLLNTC (bridge 15-19; not fully specified) [triple agonist of SEQ ID NO: 87]	%	=	0.9
